Taken from paper PMC4585259.

SYSTEM_UNDER_TEST: rNav1.2 sodium channels (Rattus norvegicus, UniProt P04775)
Construct: host or cells: HEK-293
Sequence (P04775 whole entry): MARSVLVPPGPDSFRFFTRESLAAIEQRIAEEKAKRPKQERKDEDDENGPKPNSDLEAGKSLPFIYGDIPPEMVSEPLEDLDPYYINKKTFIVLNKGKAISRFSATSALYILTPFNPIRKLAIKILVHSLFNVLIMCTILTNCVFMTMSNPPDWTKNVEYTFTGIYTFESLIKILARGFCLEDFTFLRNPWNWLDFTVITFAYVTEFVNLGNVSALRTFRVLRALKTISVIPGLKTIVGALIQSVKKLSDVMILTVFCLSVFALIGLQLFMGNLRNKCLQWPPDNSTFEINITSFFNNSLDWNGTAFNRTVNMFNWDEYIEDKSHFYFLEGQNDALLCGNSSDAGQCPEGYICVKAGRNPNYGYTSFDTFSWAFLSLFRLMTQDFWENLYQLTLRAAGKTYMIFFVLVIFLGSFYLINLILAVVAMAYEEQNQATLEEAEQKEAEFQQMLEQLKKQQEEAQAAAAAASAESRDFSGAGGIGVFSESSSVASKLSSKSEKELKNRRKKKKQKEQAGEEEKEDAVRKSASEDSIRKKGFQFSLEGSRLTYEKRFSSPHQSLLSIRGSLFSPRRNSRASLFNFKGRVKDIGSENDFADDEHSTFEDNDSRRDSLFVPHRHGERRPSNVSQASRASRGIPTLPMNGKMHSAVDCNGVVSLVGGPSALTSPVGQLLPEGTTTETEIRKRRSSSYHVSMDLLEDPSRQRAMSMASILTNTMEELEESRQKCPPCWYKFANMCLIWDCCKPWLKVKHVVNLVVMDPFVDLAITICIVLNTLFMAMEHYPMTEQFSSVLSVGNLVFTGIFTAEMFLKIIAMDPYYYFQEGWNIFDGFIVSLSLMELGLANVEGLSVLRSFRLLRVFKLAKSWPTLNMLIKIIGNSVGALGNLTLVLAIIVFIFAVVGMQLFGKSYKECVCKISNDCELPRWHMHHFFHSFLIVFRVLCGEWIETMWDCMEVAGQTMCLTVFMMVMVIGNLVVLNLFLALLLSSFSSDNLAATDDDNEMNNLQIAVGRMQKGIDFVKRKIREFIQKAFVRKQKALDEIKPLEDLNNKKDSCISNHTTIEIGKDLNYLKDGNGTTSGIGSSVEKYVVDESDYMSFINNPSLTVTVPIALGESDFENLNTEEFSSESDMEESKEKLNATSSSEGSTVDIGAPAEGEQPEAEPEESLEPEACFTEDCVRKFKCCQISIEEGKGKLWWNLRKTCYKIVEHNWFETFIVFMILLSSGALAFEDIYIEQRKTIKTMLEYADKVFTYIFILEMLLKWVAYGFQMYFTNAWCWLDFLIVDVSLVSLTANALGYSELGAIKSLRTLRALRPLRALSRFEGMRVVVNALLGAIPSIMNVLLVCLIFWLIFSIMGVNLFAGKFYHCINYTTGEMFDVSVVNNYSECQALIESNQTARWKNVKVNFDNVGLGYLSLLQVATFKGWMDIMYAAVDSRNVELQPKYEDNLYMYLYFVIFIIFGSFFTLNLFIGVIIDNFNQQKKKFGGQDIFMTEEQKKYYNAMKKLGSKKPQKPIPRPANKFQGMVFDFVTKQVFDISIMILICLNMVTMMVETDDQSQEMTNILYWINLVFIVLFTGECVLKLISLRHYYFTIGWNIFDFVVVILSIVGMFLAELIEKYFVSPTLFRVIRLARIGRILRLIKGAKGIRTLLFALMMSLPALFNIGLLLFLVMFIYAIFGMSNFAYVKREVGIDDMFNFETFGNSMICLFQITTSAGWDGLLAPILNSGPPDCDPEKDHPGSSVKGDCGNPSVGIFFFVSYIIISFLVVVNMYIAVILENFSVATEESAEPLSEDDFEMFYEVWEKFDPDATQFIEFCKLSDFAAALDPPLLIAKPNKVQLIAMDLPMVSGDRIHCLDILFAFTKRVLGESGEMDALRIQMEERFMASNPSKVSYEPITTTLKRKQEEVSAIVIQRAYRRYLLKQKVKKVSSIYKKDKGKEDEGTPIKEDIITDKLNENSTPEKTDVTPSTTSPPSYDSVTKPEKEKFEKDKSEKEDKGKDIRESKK
TEST_METHOD_NOTES: QPatch automated patch clamp, inhibition of sodium currents evoked by 5 Hz trains at three extracellular pH values
Assay type: cell-based
CONDITION_CONTEXT: pH 7.3/8.6; cc 30 mM
Method: HEK-293 cells stably expressing rNav1.2 sodium channels were obtained from NeuroSearch (Ballerup, Denmark). The cells were grown in Dulbecco's modified Eagle medium supplemented with 10% FBS. Prior to use, the cells were trypsinized and subsequently kept in suspension in the QPatch cell storage facility in CHO-S- SFM-II medium. […] Data were sampled at a frequency of 25 kHz and filtered at 5 kHz. Junction potential was calculated to be −11 mV and was corrected for. […]
Ratio Tau Offset: recorded values
PARAMETER: Ratio Tau Offset

CN(C)CCC=C1c2ccccc2CCc2ccccc21: 0.702
CN(C)CCCN1c2ccccc2Sc2ccc(Cl)cc21: 0.861
CC12CC3CC(C)(C1)CC(N)(C3)C2 [memantine]: 0.915
CCc1nn(CCCN2CCN(c3cccc(Cl)c3)CC2)c(=O)n1CCOc1ccccc1: 0.844
Cc1nc2sccn2c(=O)c1CCN1CCC(=C(c2ccc(F)cc2)c2ccc(F)cc2)CC1: 0.528
Fc1ccc([C@@H]2CCNC[C@H]2COc2ccc3c(c2)OCO3)cc1: 1.329

----------
Recorded Kd by entry
SYSTEM_UNDER_TEST: rNav1.2 sodium channels (Rattus norvegicus, UniProt P04775)
Construct: host or cells: HEK-293
TEST_METHOD_NOTES: QPatch automated patch clamp, inhibition of sodium currents evoked by 5 Hz trains at three extracellular pH values
Type: cell-based
CONDITION_CONTEXT: pH=8.6; cc 30 mM; read-out: Apparent Affinity
PARAMETER: Kd (µM)

CC12CC3CC(C)(C1)CC(N)(C3)C2 [memantine]: 47.9
CN(C)CCCN1c2ccccc2Sc2ccc(Cl)cc21 [chlorpromazine]: 17.2
Fc1ccc([C@@H]2CCNC[C@H]2COc2ccc3c(c2)OCO3)cc1 [paroxetine]: 8.57
CN(C)CCC=C1c2ccccc2CCc2ccccc21 [amitriptyline]: 13.8
Cc1nc2sccn2c(=O)c1CCN1CCC(=C(c2ccc(F)cc2)c2ccc(F)cc2)CC1 [ritanserin]: 52.4
CCc1nn(CCCN2CCN(c3cccc(Cl)c3)CC2)c(=O)n1CCOc1ccccc1 [nefazodone]: 28.9

----------
SYSTEM_UNDER_TEST: rNav1.2 sodium channels (Rattus norvegicus)
Construct: host or cells: HEK-293
TEST_METHOD_NOTES: QPatch automated patch clamp, inhibition of sodium currents evoked by 5 Hz trains at three extracellular pH values
Format: cell-based
CONDITION_CONTEXT: pH 6.0/7.3; cc 30 mM
Classify by measured Ratio Reversibility: met if it is equal to or exceeds 1, not met if it is smaller.

CN(C)CCC=C1c2ccccc2CCc2ccccc21 [amitriptyline]: met
CN(C)CCCN1c2ccccc2Sc2ccc(Cl)cc21 [chlorpromazine]: met
Fc1ccc([C@@H]2CCNC[C@H]2COc2ccc3c(c2)OCO3)cc1 [paroxetine]: met
CCc1nn(CCCN2CCN(c3cccc(Cl)c3)CC2)c(=O)n1CCOc1ccccc1 [nefazodone]: not met
CC12CC3CC(C)(C1)CC(N)(C3)C2 [memantine]: not met

----------
SYSTEM_UNDER_TEST: rNav1.2 sodium channels (Rattus norvegicus, UniProt P04775)
Construct: host or cells: HEK-293
TEST_METHOD_NOTES: QPatch automated patch clamp, inhibition of sodium currents evoked by 5 Hz trains at three extracellular pH values
Type: cell-based
CONDITION_CONTEXT: pH=6.0; cc 300 mM
Protocol: HEK-293 cells stably expressing rNav1.2 sodium channels were obtained from NeuroSearch (Ballerup, Denmark). The cells were grown in Dulbecco's modified Eagle medium supplemented with 10% FBS. Prior to use, the cells were trypsinized and subsequently kept in suspension in the QPatch cell storage facility in CHO-S- SFM-II medium. […] Data were sampled at a frequency of 25 kHz and filtered at 5 kHz. Junction potential was calculated to be −11 mV and was corrected for. […]
We begin with a simple list: items and their reported Reversibility.
PARAMETER: Reversibility

O=C(NCC1CCCCN1)c1cc(OCC(F)(F)F)ccc1OCC(F)(F)F (stereo not drawn) [flecainide]: 0.64
CCN(CC)CC(=O)Nc1c(C)cccc1C: 0.66
Nc1nnc(-c2cccc(Cl)c2Cl)c(N)n1: 0.74
O=C1NC(=O)C(c2ccccc2)(c2ccccc2)N1: 0.83
NC(=O)N1c2ccccc2C=Cc2ccccc21 [carbamazepine]: 0.67
Cc1cccc(C)c1OCC(C)N (stereo not drawn): 0.78

----------
SYSTEM_UNDER_TEST: rNav1.2 sodium channels (Rattus norvegicus)
Construct: host or cells: HEK-293
TEST_METHOD_NOTES: QPatch automated patch clamp, inhibition of sodium currents evoked by 5 Hz trains at three extracellular pH values
Assay type: cell-based
CONDITION_CONTEXT: pH=7.3; cc 300 mM
Note to self: values exactly at 0.8 are true. So Reversibility at or above 0.8 is true, below is false.

Nc1nnc(-c2cccc(Cl)c2Cl)c(N)n1 [lamotrigine]: true
O=C(NCC1CCCCN1)c1cc(OCC(F)(F)F)ccc1OCC(F)(F)F (centres unmarked) [flecainide]: false
NC(=O)N1c2ccccc2C=Cc2ccccc21 [carbamazepine]: true

----------
SYSTEM_UNDER_TEST: rNav1.2 sodium channels (Rattus norvegicus, UniProt P04775)
Construct: host or cells: HEK-293
TEST_METHOD_NOTES: QPatch automated patch clamp, inhibition of sodium currents evoked by 5 Hz trains at three extracellular pH values
Assay type: cell-based
CONDITION_CONTEXT: pH 8.6; concentration (lidocaine 300 μM, memantine 30 μM)
Reported τoffset values for the following molecules.
PARAMETER: τoffset (s)

O=C1NC(=O)C(c2ccccc2)(c2ccccc2)N1: 21.40
O=C(NCC1CCCCN1)c1cc(OCC(F)(F)F)ccc1OCC(F)(F)F (stereo not shown) [flecainide]: 29.40
Nc1nnc(-c2cccc(Cl)c2Cl)c(N)n1: 17.80
Nc1nc2ccc(OC(F)(F)F)cc2s1: 23.40
CCc1nn(CCCN2CCN(c3cccc(Cl)c3)CC2)c(=O)n1CCOc1ccccc1: 16.00
Cc1cccc(C)c1OCC(C)N (stereo not shown): 22.40
NC(=O)N1c2ccccc2C=Cc2ccccc21 [carbamazepine]: 8.25
COc1ccc(C(CN(C)C)C2(O)CCCCC2)cc1 (stereo not shown): 10.00
CC12CC3CC(C)(C1)CC(N)(C3)C2 [memantine]: 23.60
Cc1nc2sccn2c(=O)c1CCN1CCC(=C(c2ccc(F)cc2)c2ccc(F)cc2)CC1: 38.60
CNCCCN1c2ccccc2CCc2ccccc21: 59.00
C[Si](C)(Cc1ccc(F)cc1)CN1CCCCC1: 20.80
Nc1c(Br)cc(Br)cc1CN[C@H]1CC[C@H](O)CC1: 12.00
CN1CCN2c3ncccc3Cc3ccccc3C2C1 (stereo not shown): 15.00
Fc1ccc([C@@H]2CCNC[C@H]2COc2ccc3c(c2)OCO3)cc1: 28.40
COc1ccccc1OCC(O)CN1CCN(CC(=O)Nc2c(C)cccc2C)CC1 (stereo not shown): 17.80
CNCCC(Oc1ccccc1OC)c1ccccc1 (stereo not shown): 20.70
Cc1ccc(C(=O)C(C)CN2CCCCC2)cc1 (stereo not shown): 12.60
CN(C)CCC=C1c2ccccc2CCc2ccccc21: 28.00
CN(C)CCCN1c2ccccc2Sc2ccc(Cl)cc21: 33.00
CCN(CC)CC(=O)Nc1c(C)cccc1C: 5.98
CCCCN1CCCCC1C(=O)Nc1c(C)cccc1C (stereo not shown): 12.40

----------
SYSTEM_UNDER_TEST: rNav1.2 sodium channels (Rattus norvegicus, UniProt P04775)
Construct: host or cells: HEK-293
TEST_METHOD_NOTES: QPatch automated patch clamp, inhibition of sodium currents evoked by 5 Hz trains at three extracellular pH values
Type: cell-based
CONDITION_CONTEXT: pH 6.0; concentration (lidocaine 300 μM, memantine 30 μM)
Kind request: treat 10 s as inclusive, so τonset at 10 s or higher is Yes, anything lower is No.

CCc1nn(CCCN2CCN(c3cccc(Cl)c3)CC2)c(=O)n1CCOc1ccccc1 [nefazodone]: Yes
CC12CC3CC(C)(C1)CC(N)(C3)C2 [memantine]: Yes
O=C(NCC1CCCCN1)c1cc(OCC(F)(F)F)ccc1OCC(F)(F)F (stereo not shown) [flecainide]: Yes
CN(C)CCC=C1c2ccccc2CCc2ccccc21 [amitriptyline]: Yes
CCCCN1CCCCC1C(=O)Nc1c(C)cccc1C (stereo not shown) [bupivacaine]: Yes
CN(C)CCCN1c2ccccc2Sc2ccc(Cl)cc21 [chlorpromazine]: Yes
NC(=O)N1c2ccccc2C=Cc2ccccc21 [carbamazepine]: No
CNCCCN1c2ccccc2CCc2ccccc21 [desipramine]: Yes
Nc1nnc(-c2cccc(Cl)c2Cl)c(N)n1 [lamotrigine]: Yes
Cc1cccc(C)c1OCC(C)N (stereo not shown) [mexiletine]: Yes
O=C1NC(=O)C(c2ccccc2)(c2ccccc2)N1 [phenytoin]: Yes
Nc1nc2ccc(OC(F)(F)F)cc2s1 [riluzole]: No
Nc1c(Br)cc(Br)cc1CN[C@H]1CC[C@H](O)CC1 [ambroxol]: No
Cc1ccc(C(=O)C(C)CN2CCCCC2)cc1 (stereo not shown) [tolperisone]: No
Cc1nc2sccn2c(=O)c1CCN1CCC(=C(c2ccc(F)cc2)c2ccc(F)cc2)CC1 [ritanserin]: Yes
COc1ccc(C(CN(C)C)C2(O)CCCCC2)cc1 (stereo not shown) [venlafaxine]: Yes
C[Si](C)(Cc1ccc(F)cc1)CN1CCCCC1 [silperisone]: No
Fc1ccc([C@@H]2CCNC[C@H]2COc2ccc3c(c2)OCO3)cc1 [paroxetine]: Yes
CCN(CC)CC(=O)Nc1c(C)cccc1C [lidocaine]: No
CN1CCN2c3ncccc3Cc3ccccc3C2C1 (stereo not shown) [mirtazapine]: Yes
COc1ccccc1OCC(O)CN1CCN(CC(=O)Nc2c(C)cccc2C)CC1 (stereo not shown) [ranolazine]: Yes
CNCCC(Oc1ccccc1OC)c1ccccc1 (stereo not shown) [nisoxetine]: Yes
